experiment: Partition coefficient in 1-octanol / phosphate buffer at pH 6.8; assay type: physicochemical; conditions: octanol/water
Threshold check on PC: strictly below 5 is Met; on or above 5 is Not met.

compound=Cc1cn([C@H]2C=C[C@@H](CO)O2)c(=O)[nH]c1=O assignedcategory=Met
compound="Cc1ccc2c(c1)COP(=O)(OC[C@@H]1C=C[C@H](n3cc(C)c(=O)[nH]c3=O)O1)O2 (stereo not given in full)" assignedcategory="Not met"
compound="Cc1cn([C@H]2C=C[C@@H](COP3(=O)OCc4cc([N+](=O)[O-])ccc4O3)O2)c(=O)[nH]c1=O (stereo not given in full)" assignedcategory=Met
compound="Cc1cn([C@H]2C=C[C@@H](COP3(=O)OCc4ccccc4O3)O2)c(=O)[nH]c1=O (stereo not given in full)" assignedcategory=Met

Note: attention shifts to another entry.
Is 5 strictly greater than the compound's reported PC? compound: Cc1cn([C@H]2C=C[C@@H](COP3(=O)OCc4cc(Cl)ccc4O3)O2)c(=O)[nH]c1=O (stereo not given in full) Not met
